assay: Cytotoxicity against human ARPE-19 cells assessed as reduction in nuclei count measured after 10 days for Hoechst 33342 staining based microscopic analysis; assay type: cell-based; details: time 10 day
parameter: CC50 at 240 h (µM)
Value expressed in µM; do not type the unit.

O=[N+]([O-])c1ccc(-c2c3nc(c4ccc([nH]4)c(-c4ccc([N+](=O)[O-])cc4F)c4ccc([nH]4)c(-c4ccc([N+](=O)[O-])cc4F)c4ccc2[nH]4)C=C3)c(F)c1	5.3

Here is the next item to consider.
// lookup CC50 at 240 h for `O=[N+]([O-])c1ccc(F)c(-c2c3nc(c4ccc([nH]4)c(-c4cc([N+](=O)[O-])ccc4F)c4ccc([nH]4)c(-c4cc([N+](=O)[O-])ccc4F)c4ccc2[nH]4)C=C3)c1`
50

----------
assay: Selectivity index, ratio of CC50 for human MRC5 cells assessed as reduction in nuclei count measured after 6 days for Hoechst 33342 staining based microscopic analysis to EC50 Human cytomegalovirus infected in MRC5 cells measured after 6 days by microscopic analysis; format: toxicity, cell-based; conditions: time 6 day, read-out: Ratio CC50/EC50
parameter: selectivity ratio at 144 h

Record excerpt, results attached:
O=[N+]([O-])c1ccc(F)c(-c2c3nc(c4ccc([nH]4)c(-c4c(F)ccc([N+](=O)[O-])c4F)c4ccc([nH]4)c(-c4c(F)ccc([N+](=O)[O-])c4F)c4ccc2[nH]4)C=C3)c1F	10.2
O=[N+]([O-])c1cc(F)ccc1-c1c2nc(c3ccc([nH]3)c(-c3ccc(F)cc3[N+](=O)[O-])c3ccc([nH]3)c(-c3ccc(F)cc3[N+](=O)[O-])c3ccc1[nH]3)C=C2	> 16

// lookup selectivity ratio at 144 h for `O=[N+]([O-])c1ccc(F)c(-c2c3nc(c4ccc([nH]4)c(-c4cc([N+](=O)[O-])ccc4F)c4ccc([nH]4)c(-c4cc([N+](=O)[O-])ccc4F)c4ccc2[nH]4)C=C3)c1`
2.4

----------
Each entry below lists one item and its recorded log10 IC50 value.
system: Human betaherpesvirus 5; assay: Antiviral activity against Human cytomegalovirus infected in MRC5 cells measured after 6 days by fluorescence based microscopic analysis; format: functional, cell-based; details: Human betaherpesvirus 5, MRC5, 144 h; read-out: IC50
Please interpret these as log10 of IC50 where IC50 is in nM.

O=[N+]([O-])c1cccc(-c2c3nc(c4ccc([nH]4)c(-c4cccc([N+](=O)[O-])c4F)c4ccc([nH]4)c(-c4cccc([N+](=O)[O-])c4F)c4ccc2[nH]4)C=C3)c1F	3.26
O=[N+]([O-])c1cc(C(F)(F)F)ccc1-c1c2nc(c3ccc([nH]3)c(-c3ccc(C(F)(F)F)cc3[N+](=O)[O-])c3ccc([nH]3)c(-c3ccc(C(F)(F)F)cc3[N+](=O)[O-])c3ccc1[nH]3)C=C2	3.45

// lookup log10 IC50 for `O=[N+]([O-])c1cc(F)cc(-c2c3ccc([nH]3)c(-c3cc(F)ccc3[N+](=O)[O-])c3nc(c4ccc([nH]4)c(-c4cc(F)ccc4[N+](=O)[O-])c4ccc2[nH]4)C=C3)c1`
3.30

// lookup log10 IC50 for `O=[N+]([O-])c1cc(F)ccc1-c1c2nc(c3ccc([nH]3)c(-c3ccc(F)cc3[N+](=O)[O-])c3ccc([nH]3)c(-c3ccc(F)cc3[N+](=O)[O-])c3ccc1[nH]3)C=C2`
3.48

// lookup log10 IC50 for `O=[N+]([O-])c1ccc(F)c(-c2c3nc(c4ccc([nH]4)c(-c4cc([N+](=O)[O-])ccc4F)c4ccc([nH]4)c(-c4cc([N+](=O)[O-])ccc4F)c4ccc2[nH]4)C=C3)c1`
3.18
